test system: eNOS promoter; assay: eNOS-transcription test (eNOS-promoter luciferase reporter cell line EA.csr03); format: cell-based; conditions: Homo sapiens; EA.csr03 cells; read-out: Cellular EC50 in the eNOS-transcription test
reported-property: pEC50
Recall that pEC50 is obtained by taking minus log10 of the concentration measured in molar.

{"columns": ["structure-smiles-string", "value"],
 "data": [
  ["O=C(CCCC[C@@H]1SC[C@@H]2NC(=O)N[C@@H]21)NCCCCCC(=O)NCCOCCOc1ccc(C(=O)N[C@H]2CCCc3ccccc3C2)cc1", 5.92]
]}

Attention now turns to another entry.
GET pEC50 | system: eNOS promoter | item: `O=C(NC1Cc2ccccc2C1)c1ccc(F)cc1`
5.52
